- target.or.system: Type-1 angiotensin II receptor (Bos taurus, UniProt P25104)
- Sequence (P25104 whole entry): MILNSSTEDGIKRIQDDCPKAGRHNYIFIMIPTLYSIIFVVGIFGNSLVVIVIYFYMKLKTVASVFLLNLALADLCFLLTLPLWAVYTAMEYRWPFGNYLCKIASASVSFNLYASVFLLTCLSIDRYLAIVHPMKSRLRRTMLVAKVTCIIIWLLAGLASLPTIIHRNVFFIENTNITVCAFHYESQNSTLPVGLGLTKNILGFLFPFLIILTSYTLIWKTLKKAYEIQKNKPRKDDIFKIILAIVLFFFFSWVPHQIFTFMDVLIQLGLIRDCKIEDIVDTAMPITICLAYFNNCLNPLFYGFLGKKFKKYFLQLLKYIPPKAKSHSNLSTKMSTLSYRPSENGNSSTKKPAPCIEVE
pIC50: −log10 of the molar value.
recorded.endpoint: pIC50

CCCCc1nc2ccc([C@@H]3C[C@H]4CCCCN3O4)cc2c(=O)n1Cc1ccc(-c2ccccc2-c2nnn[nH]2)cc1	7.38

(I) CCCCc1nc2ccc([C@H]3OC[C@@H]4ON5[C@@H](CCC5(C)C)[C@@H]43)cc2c(=O)n1Cc1ccc(-c2ccccc2-c2nn[nH]n2)cc1
(II) CCCCc1nc2ccc([C@@H]3C[C@H]4C(c5ccc(C)cc5)=NO[C@H]4O3)cc2c(=O)n1Cc1ccc(-c2ccccc2-c2nnn[nH]2)cc1
For I and II , which recorded pIC50 is lower? Provide the label of your selected option as the answer.
II
